measured.on: Angiotensin-converting enzyme (Homo sapiens, UniProt P12821)
Sequence (P12821 whole entry, the tested form may be a part): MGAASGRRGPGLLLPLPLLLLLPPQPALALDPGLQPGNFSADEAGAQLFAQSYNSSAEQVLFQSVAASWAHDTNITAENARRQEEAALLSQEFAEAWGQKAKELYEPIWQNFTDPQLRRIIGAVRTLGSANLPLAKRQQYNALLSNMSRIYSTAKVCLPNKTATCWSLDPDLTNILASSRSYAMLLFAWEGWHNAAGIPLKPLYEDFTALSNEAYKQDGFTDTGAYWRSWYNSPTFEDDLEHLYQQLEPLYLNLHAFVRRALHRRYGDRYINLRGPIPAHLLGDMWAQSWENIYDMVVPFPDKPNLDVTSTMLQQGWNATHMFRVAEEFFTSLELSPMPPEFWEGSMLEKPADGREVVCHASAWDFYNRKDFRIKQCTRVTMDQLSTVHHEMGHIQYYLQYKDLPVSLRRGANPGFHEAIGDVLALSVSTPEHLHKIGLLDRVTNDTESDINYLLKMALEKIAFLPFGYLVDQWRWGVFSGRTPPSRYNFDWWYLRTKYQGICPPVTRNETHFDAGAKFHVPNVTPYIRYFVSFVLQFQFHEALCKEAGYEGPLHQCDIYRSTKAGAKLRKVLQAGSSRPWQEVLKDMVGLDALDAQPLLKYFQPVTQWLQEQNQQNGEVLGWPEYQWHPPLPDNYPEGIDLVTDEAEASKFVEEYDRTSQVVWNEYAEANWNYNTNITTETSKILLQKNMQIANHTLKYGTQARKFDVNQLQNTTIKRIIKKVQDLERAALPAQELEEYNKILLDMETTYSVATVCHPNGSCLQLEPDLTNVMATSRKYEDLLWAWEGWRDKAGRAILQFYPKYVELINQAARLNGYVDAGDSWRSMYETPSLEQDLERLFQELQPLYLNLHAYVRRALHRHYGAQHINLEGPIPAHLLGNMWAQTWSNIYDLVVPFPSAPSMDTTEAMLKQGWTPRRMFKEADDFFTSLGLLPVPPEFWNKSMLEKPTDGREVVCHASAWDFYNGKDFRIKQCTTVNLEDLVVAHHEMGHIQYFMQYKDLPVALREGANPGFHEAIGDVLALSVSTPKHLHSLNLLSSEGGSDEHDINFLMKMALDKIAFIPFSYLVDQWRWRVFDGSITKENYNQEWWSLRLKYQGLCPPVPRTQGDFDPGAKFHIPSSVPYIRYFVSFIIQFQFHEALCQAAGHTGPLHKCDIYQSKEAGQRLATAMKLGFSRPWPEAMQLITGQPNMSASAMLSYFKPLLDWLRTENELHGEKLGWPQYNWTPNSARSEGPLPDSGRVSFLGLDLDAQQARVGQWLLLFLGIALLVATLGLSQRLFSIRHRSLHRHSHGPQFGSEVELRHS
assay.overview: Inhibition of human fully glycosylated ACE N-terminal domain expressed in CHO cells using Cbz-Phe-His-Leu as substrate preincubated for 15 mins followed by substrate addition measured after 10 mins by fluorescence spectrophotometric analysis
measured.endpoint: IC50 (µM)
Expressed in µM, but write only the number.

// fetch IC50; item: `O=C(N[C@H]1CCS[C@H]2CCC[C@@H](C(=O)O)N2C1=O)[C@H](Cc1ccccc1)SS[C@@H](Cc1ccccc1)C(=O)N[C@H]1CCS[C@H]2CCC[C@@H](C(=O)O)N2C1=O` ; system: Angiotensin-converting enzyme (Homo sapiens, UniProt P12821)
2.2
